- target_under_test: OleD P67T/S132F/A242V (Streptomyces antibioticus, UniProt Q53685, A242V/P67T/S132F)
- Construct: made in house; host or cells: E. coli (site-directed mutant of pET28/OleD)
- experiment_notes: Rate of glucoside formation with acceptors (RP-HPLC)
- Assay type: biochemical
- experimental_setup: rate of P67T/S132F/A242V versus WT, UDPG donor
Record form. Attribute: Fold-improvement compared to WT OleD. Fill in for each entry.
The reply should contain only the number, in fold.

Exercise: Given the compound Cc1cc(=O)oc2cc(O)ccc12 [4-Me-umb (4), 7-hydroxy-4-methylcoumarin] , what is its reported Fold-improvement compared to WT OleD?
Solution: 33

Exercise: Request: O=c1c(-c2ccc(O)cc2)coc2cc(O)cc(O)c12 [genistein (32), genistein]
Solution: 7.7

Exercise: Request: O=c1c(-c2ccc(O)cc2)coc2cc(O)ccc12 [daidzein (31), daidzein]
Solution: 5.7

Exercise: Request: O=c1c(O)c(-c2ccc(O)cc2)oc2cc(O)cc(O)c12 [kaempferol (30), kaempferol]
Solution: 2.1

Exercise: Request: O=C(O)c1cc2ccc(O)cc2oc1=O [7-hydroxycoumarin-3-carboxylic acid (28), 7-hydroxycoumarin-3-carboxylic acid]
Solution: 62

Exercise: Request: CO[C@H]1C[C@H](O[C@H]2[C@H](C)[C@@H](O[C@@H]3O[C@H](C)C[C@H](N(C)C)[C@H]3O)[C@@H](C)C[C@@]3(CO3)C(=O)[C@H](C)[C@@H](O)[C@@H](C)[C@@H](C)OC(=O)[C@@H]2C)O[C@@H](C)[C@@H]1O [oleandomycin (1), oleandomycin]
Solution: 0.02

# credit: patent US8093028B2
